Test system: SR leukemia
measurement-protocol: NCI tumour cell line growth inhibition, 48 h; in the data active = GI50 below about 0.43 µM; inactive = the rest
Your reply should match one of these outcome classes. 1.0 (active), 0.0 (inactive)

{"compound": "COc1ccc(-c2nsc3c2NC(=O)CC3c2cccc(F)c2)cc1 (stereo not drawn)", "target-system": "SR leukemia", "group-label": 0.0}

Task: Tell me the recorded outcome of this test for O=C1/C=C/[C@@H](O)[C@@H]2C[C@@H](O)C[C@H]2/C=C/CCC[C@H](CCc2ccc(NC(=S)Nc3ccc4c(c3)C(=O)OC43c4ccc(O)cc4Oc4cc(O)ccc43)cc2)O1 .
Result: 0.0

Task: Same thing, different compound: CCOP(=O)(OCC)C(NC(c1ccccc1)c1ccccc1)c1ccsc1 (stereo not drawn)
Result: 0.0

Task: Same thing, different compound: Cc1cnc(-c2ccc(-c3ccc(NC(=O)Nc4cccc(C(F)(F)F)c4)cc3F)c3c2C(=O)NC3)[nH]1
Result: 1.0
